Record set of pKi for target or system purified human Factor XIa (Homo sapiens (Human), UniProt P03951).
pKi: −log10 of the molar value.

- MOLECULE: "O=C(O)c1ccc(C(=O)NC(Cc2ccccc2)c2ccc(-c3cc(Cl)ccc3-n3cnnn3)c[n+]2[O-])cc1 (centres unmarked)"
  pKi: 7.08
- MOLECULE: "Nc1n[nH]c2cc(C(=O)N[C@@H](Cc3ccccc3)c3ccc(-c4cc(Cl)ccc4-n4cnnn4)c[n+]3[O-])ccc12 [Example 1, 2,2,2-TRIFLUOROACETATE]"
  pKi: 9.05

###

The molecules listed here are annotated with their pKi.
MEASUREMENT_TARGET: purified Human plasma kallikrein (Homo sapiens (Human), UniProt P03952)
Sequence (P03952 391-638): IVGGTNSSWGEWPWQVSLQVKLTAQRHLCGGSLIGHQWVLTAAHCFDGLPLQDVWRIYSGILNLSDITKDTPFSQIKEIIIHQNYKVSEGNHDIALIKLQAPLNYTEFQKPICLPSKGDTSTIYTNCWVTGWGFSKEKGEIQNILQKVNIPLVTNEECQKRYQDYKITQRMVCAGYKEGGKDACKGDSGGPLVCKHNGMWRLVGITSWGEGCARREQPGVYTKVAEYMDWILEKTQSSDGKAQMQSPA
Sequence (P03952 20-390 partner): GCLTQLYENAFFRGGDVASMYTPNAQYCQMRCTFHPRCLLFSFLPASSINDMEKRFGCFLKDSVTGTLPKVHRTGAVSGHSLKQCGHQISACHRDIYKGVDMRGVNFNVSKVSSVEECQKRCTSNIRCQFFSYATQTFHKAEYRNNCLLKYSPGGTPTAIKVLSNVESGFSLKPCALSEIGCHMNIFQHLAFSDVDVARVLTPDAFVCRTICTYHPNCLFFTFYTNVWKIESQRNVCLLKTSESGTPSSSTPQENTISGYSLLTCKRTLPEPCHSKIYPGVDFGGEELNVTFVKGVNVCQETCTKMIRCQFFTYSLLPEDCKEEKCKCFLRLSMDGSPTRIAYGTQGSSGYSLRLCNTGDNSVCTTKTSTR
ASSAY_EXPLANATION: Kallikrein Assay
TEST_CONDITIONS: fluorogenic substrate Acetyl-K-P-R-AFC, 0.5 nM enzyme, pH 7.4; Ki from IC50 by Cheng Prusoff
Protocol: The effectiveness of a compound of the present invention as an inhibitor of Kallikrein can be determined using a relevant purified serine protease, and an appropriate synthetic substrate. The rate of hydrolysis of the chromogenic or fluorogenic substrate by the relevant serine protease was measured both in the absence and presence of compounds of the present invention. […] A decrease in the rate of fluorescence change in the presence of inhibitor is indicative of enzyme inhibition. […]
pKi: −log10 of the molar value.

- MOLECULE: "O=C(O)c1ccc(C(=O)N[C@@H](Cc2ccccc2)c2ccc(-c3cc(Cl)ccc3-n3cnnn3)c[n+]2[O-])s1 [Example 6]"
  pKi: 6.66
- MOLECULE: "COC(=O)Nc1ccc(C(=O)N[C@@H](Cc2ccccc2)c2ccc(-c3cc(Cl)ccc3-n3cnnn3)c[n+]2[O-])cc1 [Example 2]"
  pKi: 6.98
- MOLECULE: "COCC(=O)Nc1ccc(C(=O)N[C@@H](Cc2ccccc2)c2ccc(-c3cc(Cl)ccc3-n3cnnn3)c[n+]2[O-])cc1 [Example 7]"
  pKi: 6.29
- MOLECULE: "Nc1n[nH]c2cc(C(=O)N[C@@H](Cc3ccccc3)c3ccc(-c4cc(Cl)ccc4-n4cnnn4)c[n+]3[O-])ccc12 [Example 1, 2,2,2-TRIFLUOROACETATE]"
  pKi: 7.60
- MOLECULE: "NC(=O)c1ccc(C(=O)N[C@@H](Cc2ccccc2)c2ccc(-c3cc(Cl)ccc3-n3cnnn3)c[n+]2[O-])s1 [Example 4]"
  pKi: 7.44
